These measurements were taken from ChEMBL document CHEMBL4831514.

# RUN DESCRIPTION: Selectivity index, ratio of CC50 for cytotoxicity against human A549 cells to EC50 for antiviral activity against Human herpesvirus 1 MacIntyre infected in A549 cells assessed as reduction in virus titer treated 1 hr post viral infection followed by replacement with fresh medium with compounds and measured after 72 hrs by MTT assay
# Type: toxicity, cell-based
# CONDITION NOTES: read-out: Selectivity Index
MEASURE: selectivity ratio at 72 h

COMPOUND	RECORDED MEASUREMENT
C=C(C)[C@@H]1CC[C@]2(COC(=O)/C=C(\C)C(=O)N3CCCCC3)CC[C@]3(C)[C@H](CC[C@@H]4[C@@]5(C)CC[C@H](O)C(C)(C)[C@@H]5CC[C@]43C)[C@@H]12	4
C=C(C)[C@@H]1CC[C@]2(COC(=O)c3ccccc3C(=O)N3CCCCC3)CC[C@]3(C)[C@H](CC[C@H]4C3(C)CC[C@H]3C(C)(C)[C@@H](O)CC[C@@]34C)[C@@H]12 (single isomer, unassigned)	2
C=C(C)[C@@H]1CC[C@]2(COC(=O)c3ccccc3C(=O)N3CCSCC3)CC[C@]3(C)[C@H](CC[C@@H]4[C@@]5(C)CC[C@H](O)C(C)(C)[C@@H]5CC[C@]43C)[C@@H]12	11.8
C=C(C)[C@@H]1CC[C@]2(COC(=O)CCCCCCCCCC(=O)N3CCOCC3)CC[C@]3(C)[C@H](CC[C@@H]4[C@@]5(C)CC[C@H](O)C(C)(C)[C@@H]5CC[C@]43C)[C@@H]12	4.7
C=C(C)[C@@H]1CC[C@]2(COC(=O)c3ccccc3C(=O)N3CCOCC3)CC[C@]3(C)[C@H](CC[C@@H]4[C@@]5(C)CC[C@H](O)C(C)(C)[C@@H]5CC[C@]43C)[C@@H]12	4
Nc1nc2c(ncn2COCCO)c(=O)[nH]1	14
C=C(C)[C@@H]1CC[C@]2(COC(=O)CCCC(=O)O)CC[C@]3(C)[C@H](CC[C@@H]4[C@@]5(C)CC[C@H](O)C(C)(C)[C@@H]5CC[C@]43C)[C@@H]12	3.6
C=C(C)[C@@H]1CC[C@]2(COC(=O)CCCC(=O)N3CCOCC3)CC[C@]3(C)[C@H](CC[C@@H]4[C@@]5(C)CC[C@H](O)C(C)(C)[C@@H]5CC[C@]43C)[C@@H]12	8
